Test: Phase I trial of oral PCLX-001: plasma pharmacokinetics, noncompartmental analysis (Phoenix WinNonlin 8.3)
Format: in vivo, human
Conditions: human, plasma, oral, 140 mg, Table 5; Mean; on Pantoprazole; 140 mg; N 2; Day 15; read-out: t½ (converted)
outcomeMeasure: half-life (min)
Answers are plain numbers, in min.

Query: // lookup half-life for Cc1c(NS(=O)(=O)c2c(Cl)cc(-c3ccnc(N4CCNCC4)c3)cc2Cl)c(CC(C)C)nn1C
Result: 826

###

Assay: Phase I trial of oral PCLX-001: plasma pharmacokinetics, noncompartmental analysis (Phoenix WinNonlin 8.3)
Format: in vivo, human
Settings: human, plasma, po, 70 mg, Table 8; Patient 115-002-008; Day 15; 70 mg QD oral; Pantoprazole Yes
outcomeMeasure: Cmax (ng/mL)
Answers are plain numbers, in ng/mL.

Query: I am curious: what Cmax value has been reported for Cc1c(NS(=O)(=O)c2c(Cl)cc(-c3ccnc(N4CCNCC4)c3)cc2Cl)c(CC(C)C)nn1C ?
Result: 170

###

Test: Phase I trial plasma pharmacokinetics, two-compartment model (PK Solver 2.0)
Type: in vivo
Settings: human, oral, 20 mg, Table 1B fourth line, Patient 115-002-001, Day 15
outcomeMeasure: AUC(0-inf) (ng·h/mL)
Numbers only, in ng·h/mL.

Query: Reported AUC(0-inf) for Cc1c(NS(=O)(=O)c2c(Cl)cc(-c3ccnc(N4CCNCC4)c3)cc2Cl)c(CC(C)C)nn1C [PCLX-001] : what is it?
Result: 2640

###

Experiment: Phase I trial of oral PCLX-001: plasma pharmacokinetics, noncompartmental analysis (Phoenix WinNonlin 8.3)
Assay type: in vivo, human
Conditions: human, plasma, po, 20 mg, Table 1A; Patient 115-002-002 (Patient 2); Day 1; 20 mg oral daily; read-out: Tmax
Excerpt: The clinical trial is entitled “Phase I Trial of PCLX-001 in B-cell Non-Hodgkin Lymphoma and Advanced Solid Malignancies” and registered at clinicaltrials.gov as NCT04836195. It is a phase I dose-escalation study of oral PCLX-001, conducted in a multicenter, non-randomized, open-label, non-controlled design. The study is comprised of two parts: Part A (single-agent dose escalation) and Part B (single-agent expansion cohorts). […]
outcomeMeasure: Tmax (h)
One number for each entry, in h.

Query: Any idea what its Tmax is? The molecule is Cc1c(NS(=O)(=O)c2c(Cl)cc(-c3ccnc(N4CCNCC4)c3)cc2Cl)c(CC(C)C)nn1C
Result: 4

###

Assay: Phase I trial of oral PCLX-001: plasma pharmacokinetics, noncompartmental analysis (Phoenix WinNonlin 8.3)
Assay type: in vivo, human
Details: human, plasma, po, 20 mg, Table 6; Patient 115-002-004; Day 1; 20 mg QD oral; Pantoprazole No
outcomeMeasure: AUC(0-inf) (ng·h/mL)
Give bare numbers, in ng·h/mL.

Query: Given the compound Cc1c(NS(=O)(=O)c2c(Cl)cc(-c3ccnc(N4CCNCC4)c3)cc2Cl)c(CC(C)C)nn1C , what is its reported AUC(0-inf)?
Result: 1880

###

Assay: Phase I trial of oral PCLX-001: plasma pharmacokinetics, noncompartmental analysis (Phoenix WinNonlin 8.3)
Assay type: in vivo, human
Details: human, plasma, po, 70 mg, Table 8; Patient 115-024-001; Day 15; 70 mg QD oral; Pantoprazole No; read-out: Tmax
Excerpt: The clinical trial is entitled “Phase I Trial of PCLX-001 in B-cell Non-Hodgkin Lymphoma and Advanced Solid Malignancies” and registered at clinicaltrials.gov as NCT04836195. It is a phase I dose-escalation study of oral PCLX-001, conducted in a multicenter, non-randomized, open-label, non-controlled design. The study is comprised of two parts: Part A (single-agent dose escalation) and Part B (single-agent expansion cohorts). […]
outcomeMeasure: Tmax (h)
Numbers only, in h.

Query: Give the measured Tmax of Cc1c(NS(=O)(=O)c2c(Cl)cc(-c3ccnc(N4CCNCC4)c3)cc2Cl)c(CC(C)C)nn1C .
Result: 4

Hey, just so you know, these numbers are from patent US20250161299A1.
